pIC50: −log10 of the molar value.
pIC50 values recorded for IGF-1R (Homo sapiens, UniProt P08069)

Worked examples, 2 compounds total:
{"columns": ["query.smiles", "study.system", "recorded.endpoint", "measured.result"],
 "data": [
  ["CCOc1cc(-c2ccccc2)nc2cc(-c3nn([C@H]4C[C@@](C)(O)C4)c(N)c3C(N)=O)ccc12", "IGF-1R (Homo sapiens, UniProt P08069)", "pIC50", "≥ 7.00"],
  ["C[C@]1(O)C[C@H](n2nc(-c3ccc4ccc(-c5ccccc5F)nc4c3)c(C(N)=O)c2N)C1", "IGF-1R (Homo sapiens, UniProt P08069)", "pIC50", "≥ 7.00"]
]}

pIC50 lookup needed for C[C@]1(O)C[C@@H](n2nc(-c3ccc4cnc(-c5ccccc5)nc4c3)c(C(N)=O)c2N)C1 , thanks.
4.70 to 6.00

What about this compound? COc1cc(-c2cccc(F)c2)nc2cc(-c3nn([C@H]4C[C@@](C)(O)C4)c(N)c3C(N)=O)ccc12
≥ 7.00

Attribution: patent US20250145599A1
